The origin of these recorded values is patent US20180271873A1.

# Lookup of reported EC50 keyed by entry
# System: GFP-expressing Zaire Ebolavirus Mayinga-GFP
# test_protocol: microbe, parasite or virus in culture
# Type: cell-based
# condition_parameters: HeLa, read-out: Activity (Biological activity, EC50)

These recorded examples may help you get a feel for the data.
Query: What does the record list as EC50 for Cc1cccc(/C=N/Nc2cc(N3CCOCC3)nc(OCCCc3ccccn3)n2)c1 ?
Response: < 1000 nM

Query: Given the molecule Cc1cccc(/C=N/Nc2cc(N3CCCOCC3)nc(OCCc3ccccn3)n2)c1 , what is its reported EC50?
Response: 1000 to 50000 nM

Note: attention shifts to another entry.
Query: What EC50 value was documented for this molecule, N#Cc1cccc(/C=N/Nc2cc(N3CCOCC3)nc(OCCc3ccccn3)n2)c1 ?
Response: 1000 to 50000 nM
